Assay: Cycloheximide Counterscreen for Small Molecule Inhibitors of Shiga Toxin; also: read at 38.3 µM for the half of the compounds with a filed dose
Details: cell reporter, cycloheximide protein synthesis inhibition counterscreen
The campaign covered roughly 300,000 compounds. About 37,000 (12%) were called active. Rule as the data show it: active = max response mostly above about 13% (no sharp cut-off); inactive = mostly below about 14%. The list comes from a sample in which actives are over-represented; it also holds close analogues and randomly drawn compounds.
Write down one outcome, taken from active, inactive

Here are 3 molecules together with their reported answers.
{"columns": ["MOLECULE", "ASSIGNED_CLASS"],
 "data": [
  ["Cc1ccc(OCc2nnc(NC(=O)OCC(C)C)s2)cc1", "inactive"],
  ["CCCCNC(=O)N(O)C1N(/N=C/c2ccccc2O)C(=S)SC1(C)C (configuration not stated)", "active"],
  ["CC(C)(C)C1CCc2c(sc3nc(SCC(N)=O)nc(N)c23)C1 (configuration not stated)", "active"]
]}

In: Status in this test for `C=C(C)CSc1nc(N)c2c3c(sc2n1)CCC3` ?
Out: active

In: Status in this test for `Cc1ccc(NC(=O)OCc2cncs2)cc1` ?
Out: active

In: Status in this test for `CCOC(=O)N1CCN(CCC(=O)Nc2ccccc2)CC1` ?
Out: inactive

In: Status in this test for `Cc1ccc(-c2nn(-c3ccccc3)cc2/C=C/C(=O)Nc2cccc(S(N)(=O)=O)c2)cc1` ?
Out: inactive

In: Status in this test for COc1ccc(NC(=O)/C(Cl)=C(/Cl)S(=O)Cc2ccc(C)cc2)cn1 (configuration not stated) ?
Out: inactive

In: Status in this test for `CCOC(=O)Nc1ccc(S(=O)(=O)N(C)C(C)C)cc1` ?
Out: inactive

In: Status in this test for `Cc1cccc2c1cnn2C(=O)CCC(=O)NC1CCCCC1` ?
Out: inactive

In: Status in this test for `Cc1ccc(C(=O)NCCNC(=O)c2cnccn2)cc1` ?
Out: inactive

In: Status in this test for `CCOC(=O)Nc1ccc(NC(=O)OCC)cc1` ?
Out: active

Just for reference, PubChem BioAssay AID2314 is where these values come from.
